Values were extracted from PubChem BioAssay.

- Assay details: JC-1 mitochondrial potential readout, lung cancer cells – cell-based, A549, JC-1 fluorescence, basal, 24 h, 100 nL, profiling panel (AID 1138);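 note: A549 lung adenocarcinoma cells under basal conditions with no added stimulus; test concentration not given here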
- Run conditions: higher = more signal
Please note: 1 (yes) applies when z-score is -0.2 or greater, and 0 (no) applies otherwise.

| Compound | Classification |
| --- | --- |
| CN1C(=O)C2C=CC(C(O)c3ccc(F)cc3)N(N3CCCCC3)C2C1=O (centres undefined) | 1 (yes) |
| C=C[C@H](C)[C@H](OC(=O)Nc1ccc(SC)cc1)c1ccc(O)c2ccccc12 | 0 (no) |
| C=C(COC)/C(=C/C[C@@H](OC(=O)c1ccncc1)c1cccc(OCCO)c1)c1cc(C(=O)OC)ccc1OC | 1 (yes) |
| CC(C)(C)OC(=O)CC[C@@]1(C(=O)N2CCCCC2)N=C(c2ccc(OCCCO)cc2)O[C@@H]1c1ccccc1N=[N+]=[N-] | 1 (yes) |
| C=C(COC)C(=O)CC[C@H](OC(=O)c1ccccc1-c1ccccc1C(=O)O)c1ccc(CO)o1 | 0 (no) |
| C=C(COC)C(=O)CC[C@H](OC(=O)c1ccccc1-c1ccccc1C(=O)O)c1ccc(OCCO)cc1 | 0 (no) |
| COc1ccccc1CN1C(=O)c2ccccc2[C@](Cc2ccccc2I)(C(=O)NCCN2CCOCC2)[C@@H]1c1ccc(CO)cc1 | 1 (yes) |
| COc1ccc([Si](C)(C)[C@@H]2[C@@H](CCO)O[C@]3(C(=O)N(Cc4cccc(N5C(=O)COc6ccccc65)c4)c4ccccc43)[C@H]2C)cc1 | 0 (no) |
| C[C@@H]1ON(c2ccccc2)[C@H](c2ccccc2)[C@H]1C(=O)N1C(=O)OC[C@H]1Cc1ccccc1 | 1 (yes) |
| COCCOC(=O)N1C(=O)[C@@]2(c3cc(C#CCC(C(=O)OC)C(=O)OC)ccc31)[C@H](c1ccc(OCCO)cc1)N1[C@H](c3ccccc3)[C@H](c3ccccc3)OC(=O)[C@H]1[C@@H]2C(N)=O | 0 (no) |
| COCCOC(=O)N1C(=O)[C@@]2(c3ccccc31)[C@H](c1ccccc1OCCO)N1[C@H](c3ccccc3)[C@H](c3ccccc3)OC(=O)[C@H]1[C@@H]2C(=O)N1CCc2cc(OC)c(OC)cc2C1 | 0 (no) |
| C=CCC(OC(C)=O)[C@@H]1[C@@H](N(Cc2cccc3ccccc23)C(=O)Cc2ccc(F)cc2)c2cc(OCCCO)ccc2N1C(=O)Cc1ccc(OC)cc1 (some centres undefined) | 1 (yes) |
| Cc1cc(C)c(C(O)C2C=CC3C(=O)N(c4ccccc4)C(=O)C3N2Nc2ccccc2)c(C)c1 (centres undefined) | 1 (yes) |
| COc1cc2c(cc1OC)CN(C(=O)[C@@H]1[C@H]3C(=O)O[C@H](c4ccccc4)[C@H](c4ccccc4)N3[C@H](c3ccc(O)cc3)[C@@]13C(=O)Nc1ccc(C#CCNC(N)=O)cc13)CC2 | 0 (no) |
